- TESTED_TARGET: BTK (Homo sapiens)
- ASSAY: biochemical
- CONDITION_DESCRIPTION: read-out: BTK inhibition (%), 0.75 uM BTK, […] probe 3l, 15 min preincubation
Hi there, I'd appreciate the recorded inhibition at 10 µM for every entry that follows.
Answers are plain numbers, in %.

Would you please look over these solved cases?
MOLECULE: Cc1nc2n(c(=O)c1CCN1CCC(c3noc4cc(F)ccc34)CC1)CCCC2O (centres unmarked) [PCM-0065046]
inhibition at 10 µM (%): 6

MOLECULE: Nc1nc(NC2CC2)c2ncn([C@H]3C=C[C@@H](CO)C3)c2n1 [PCM-0086436]
inhibition at 10 µM (%): 9.4

MOLECULE: OCc1ccc(-c2ccc(-c3ccc(CO)s3)o2)s1 [PCM-0095348]
inhibition at 10 µM (%): 1.6

MOLECULE: CC1=C(C(=O)Nc2cc3cn[nH]c3cc2F)C(c2ccc(C(F)(F)F)cc2)CC(=O)N1 (centres unmarked) [PCM-0095153]
inhibition at 10 µM (%): 48.3

MOLECULE: COc1cc(C=O)cc(OC)c1O [PCM-0215069]
inhibition at 10 µM (%): -33.5

MOLECULE: O=C1C[C@@H](c2ccc(O)c(O)c2)Oc2cc(O)cc(O)c21 [PCM-0216409]
inhibition at 10 µM (%): 29.3

MOLECULE: O=C[C@H](O)[C@@H](O)[C@H](O)CO [PCM-0214661]
inhibition at 10 µM (%): -12.5

MOLECULE: Cc1ccc(NC(=O)c2ccc(CN3CCN(C)CC3)cc2)cc1Nc1nc(-c2cccnc2)cs1 [PCM-0094992]
inhibition at 10 µM (%): -47.6

Required: inhibition at 10 µM, one value per molecule below.
1. COc1ccc(-n2c(C)c([N+](=O)[O-])c3ccc(O)cc32)cc1 [PCM-0215272]
2. C/C(=C(\CCOC(=O)c1ccccc1)SC(=O)c1ccccc1)N(C=O)Cc1cnc(C)nc1N [PCM-0216084]

// result
1. 23.4
2. 4.6

Please state inhibition at 10 µM for every molecule in the list that follows.
1. COC(=O)CNC(=O)C(=O)OC [PCM-0215303]
2. COc1cc(C2Oc3cc(C4Oc5cc(O)cc(O)c5C(=O)C4O)ccc3OC2CO)ccc1O (centres unmarked) [PCM-0094811]
3. C=C1C(=O)O[C@H]2[C@H]1CCC(C)=C1CC[C@@](C)(O)[C@@H]12 [PCM-0216540]
4. CC(C)=CCC/C(C)=C/CC/C(C)=C/CC/C=C(\C)CC/C=C(\C)CCC=C(C)C [PCM-0216030]
5. CCCCc1nc(Cl)c(CO)n1Cc1ccc(-c2ccccc2-c2nnn[nH]2)cc1 [PCM-0086291]
6. O=C[C@H](O)[C@@H](O)[C@H](O[C@H]1O[C@H](CO)[C@@H](O[C@H]2O[C@H](CO)[C@@H](O[C@H]3O[C@H](CO)[C@@H](O[C@H]4O[C@H](CO)[C@@H](O)[C@H](O)[C@H]4O)[C@H](O)[C@H]3O)[C@H](O)[C@H]2O)[C@H](O)[C@H]1O)[C@H](O)CO [PCM-0216396]
7. O=C(O)/C(S)=C/c1c[nH]c2ccc(F)cc12 [PCM-0215343]

// result
1. 3.9
2. 66.1
3. 23.9
4. -9.7
5. -10.9
6. 3.1
7. 35.5

---

Exercise: for every item that follows, state its recorded inhibition at 10 µM.
- TESTED_TARGET: BTK (Homo sapiens, UniProt Q06187)
- Sequence (Q06187 402-655 limits assumed): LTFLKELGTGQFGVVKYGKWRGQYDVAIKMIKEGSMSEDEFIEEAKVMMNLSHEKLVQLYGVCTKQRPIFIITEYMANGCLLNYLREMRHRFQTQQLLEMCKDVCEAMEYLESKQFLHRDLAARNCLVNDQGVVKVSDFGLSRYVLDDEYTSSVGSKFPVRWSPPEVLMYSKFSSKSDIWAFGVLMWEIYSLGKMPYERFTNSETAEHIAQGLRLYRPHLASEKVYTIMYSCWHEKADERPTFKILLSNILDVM
- ASSAY: biochemical
- CONDITION_DESCRIPTION: read-out: BTK inhibition (%), 0.75 uM BTK, […] probe 3l, 15 min preincubation
Answer with the number, then the unit.

COMPOUND: c1ccc(-c2[nH]ncc2-c2ccnc3ccccc23)nc1
inhibition at 10 µM: 14.5%

COMPOUND: COC(=O)[C@H](CC(C)C)NC(=O)c1ccc(NC[C@@H](N)CS)cc1-c1cccc2ccccc12
inhibition at 10 µM: -79.5%

For the 3 compounds below, give their inhibition at 10 µM values.
1. O=c1ncn2nc(Sc3ccc(F)cc3F)ccc2c1-c1c(Cl)cccc1Cl
2. O=C(O)c1ccccc1C(=O)Nc1ccc(-c2ccccc2)cc1
3. CO/N=C1\C[C@]2(C[C@@H]3C[C@@H](C/C=C(\C)C[C@@H](C)/C=C/C=C4\CO[C@@H]5[C@H](O)C(C)=C[C@@H](C(=O)O3)[C@]45O)O2)O[C@H](/C(C)=C/C(C)C)[C@H]1C

// result
40%
13.9%
16.3%

Hello, I would appreciate it if you could give inhibition at 10 µM for each entry below.
1. C[C@]12CC[C@H]3[C@@H](CC=C4CC(O)CC[C@@]43C)[C@@H]1CC[C@@H]2C(O)CC(O)(C(F)(F)F)C(F)(F)F (stereo partly shown)
2. COc1cc(C(C)=O)ccc1OCCCN1CCC(c2noc3cc(F)ccc23)CC1
3. c1ccc2c(c1)CCCC2C1=NCCN1 (stereo not shown)
4. O=c1ccn([C@@H]2O[C@H](CO)[C@@H](O)[C@H]2O)c(=O)[nH]1
5. CC(=O)O[C@@H]1CC[C@@]2(C)[C@@H](CC[C@]3(C)[C@@H]2C(=O)C=C2[C@@H]4[C@@H](C)[C@H](C)CC[C@]4(C)CC[C@]23C)[C@@]1(C)C(=O)O
6. CCN(CC)CCCCNc1ncc2cc(-c3cc(OC)cc(OC)c3)c(NC(=O)NC(C)(C)C)nc2n1
7. Nc1nc(F)nc2c1ncn2[C@@H]1O[C@H](COP(=O)(O)O)[C@@H](O)[C@@H]1O

// result
1: 11.6%; 2: -16.3%; 3: -11%; 4: 7.8%; 5: 88%; 6: -9%; 7: -8.6%

---

Consider the following molecules; for each one, report its inhibition at 10 µM.
- TESTED_TARGET: BTK (Homo sapiens)
- ASSAY: biochemical
- CONDITION_DESCRIPTION: read-out: BTK inhibition (%), 0.75 uM BTK, […] probe 3l, 15 min preincubation
Where a SMILES comes first, the peptide text is derived from it. The star is where a group is joined. Cbz = O=C(OCc1ccccc1)*
Numbers only, in %.

# batch: return inhibition at 10 µM for each of the 4 molecules below
1. C[C@H]1C[C@H]2[C@@H]3CCC4=CC(=O)C=C[C@]4(C)[C@@]3(F)[C@@H](O)C[C@]2(C)[C@@]1(O)C(=O)CO
2. CC(C)C[C@H](NC(=O)[C@H](Cc1ccccc1)NC(=O)c1cnccn1)B(O)O
3. CC(C)C[C@@H](C=O)NC(=O)[C@H](CC(C)C)NC(=O)[C@H](CC(C)C)NC(=O)OCc1ccccc1 [PCM-0095809] (Cbz-Leu-Leu-Leu-aldehyde)
4. Nc1nccc(Oc2ccc(NC(=O)c3c[nH]cc(-c4ccc(F)cc4)c3=O)cc2F)c1Cl

// result
1. -6.2
2. 8.6
3. 5.4
4. 68.3

---

- TESTED_TARGET: BTK (Homo sapiens, UniProt Q06187)
- CONDITION_DESCRIPTION: 10 µM; inhibitor
PROPERTY: BTK inhibition (%)
Give bare numbers, in %.

Each compound below has a recorded value; state its BTK inhibition (%).
1. N#C[C@H](O[C@@H]1O[C@H](CO[C@@H]2O[C@H](CO)[C@@H](O)[C@H](O)[C@H]2O)[C@@H](O)[C@H](O)[C@H]1O)c1ccccc1
2. CC(=O)OC(C)(C)/C=C/C(=O)[C@](C)(O)[C@H]1[C@H](O)C[C@@]2(C)[C@@H]3CC=C4[C@@H](C[C@H](O)C(=O)C4(C)C)[C@]3(C)C(=O)C[C@]12C

// result
1: -12.5; 2: -10

Below is a list of compounds. For each, state its recorded BTK inhibition (%).
1. C[C@H]1CCC2N(C1)C[C@H]1C3CC4[C@@H](CC(=O)C5C[C@@H](O)CC[C@@]54C)C3CCC1[C@]2(C)O (stereo partly drawn)
2. CN[C@H]1[C@H](O)[C@H](O[C@@H]2[C@@H](O)[C@H](O[C@H]3O[C@H](C(C)O)[C@@H](O)[C@H](O)[C@H]3N)[C@@H](N)C[C@H]2N)OC[C@@]1(C)O (stereo partly drawn)
3. C/C=C\c1cc(OC)c(OC)cc1OC
4. C=C[C@]12CN(C)[C@@H]3[C@H]4CO[C@H](C[C@H]41)[C@]1(C(=O)Nc4ccccc41)[C@@H]32

// result
[-17.8, 6, -3.9, -0.8]

---

So I've got a bunch of compounds here, and I need their inhibition at 10 µM values.
- TESTED_TARGET: BTK (Homo sapiens, UniProt Q06187)
- ASSAY: biochemical
- CONDITION_DESCRIPTION: read-out: BTK inhibition (%), 0.75 uM BTK, […] probe 3l, 15 min preincubation
Numbers only, in %.

Record inhibition at 10 µM for all entries; do not skip any.
1. Cn1cc(-c2ccc3c(c2)CCN3C(=O)Cc2cccc(C(F)(F)F)c2)c2c(N)ncnc21
2. CN(CCN1CCC(OC(=O)Nc2ccccc2-c2ccccc2)CC1)C(=O)c1ccc(CN2CCC(C(N)=O)CC2)cc1
3. O=C(/C=C/c1cccnc1)c1ccncc1
4. Cn1c(-c2ccccc2C(F)(F)F)nnc1C12CCC(c3noc(C4CC(F)(F)C4)n3)(CC1)CC2
5. COc1ccc(/C=C/c2cc(O)cc(O[C@@H]3O[C@H](CO)[C@@H](O)[C@H](O)[C@H]3O)c2)cc1O
6. CCCOC(=O)c1ccc(O)cc1

// result
1: 40; 2: -10; 3: -6.9; 4: -17; 5: 6.9; 6: -6.2

Hello, I would appreciate it if you could give inhibition at 10 µM for each entry below.
1. CCCCCCCCCCCCOC(=O)CS(=O)(=O)O
2. CC(C)(C)/[N+]([O-])=C/c1ccc(S(=O)(=O)O)cc1S(=O)(=O)O

// result
-12.8
7.7
